Values were extracted from paper PMC5790502.

- Tested on: SKmel28 melanoma cells
- test-name: Cell viability assay (CellTiter-Glo)
- Format: cell-based
- test-parameters: Homo sapiens, SK-MEL-28, 72 hours treatment
metric-name: pIC50
# log scale: pIC50 equals minus log10 of the concentration in mol/L

query: May I ask what pIC50 has been recorded for Cc1oncc1C(=O)Nc1ccc(C(F)(F)F)cc1 [Leflunomide, leflunomide] ?
result: 3.78

query: May I ask what pIC50 has been recorded for Cn1cnc2c(F)c(Nc3ccc(Br)cc3Cl)c(C(=O)NOCCO)cc21 [Selumetinib, selumetinib] ?
result: 6.37

query: May I ask what pIC50 has been recorded for CCCS(=O)(=O)Nc1ccc(F)c(C(=O)c2c[nH]c3ncc(-c4ccc(Cl)cc4)cc23)c1F [Vemurafenib, vemurafenib] ?
result: 6.10
